target: T1, LC3A (for BLI) (human, UniProt Q9H492 1-121); assay: BLI; biotinylated LIR peptide immobilized on streptavidin biosensor, ATG8 in solution; 25 mM Tris pH 7.5, 150 mM NaCl, 0.5 mM TCEP, 0.1% Tween20, 1 mg/ml BSA; 25 °C; Kd from response against concentration; settings: both partners purified
T1 construct: human LC3A in the pAL plasmid (GST, 3C site)
*: point of attachment. Biotin = O=C1N[C@H]2[C@H](CS[C@H]2CCCCC(=O)*)N1; linker = not defined here
Test readout: Kd (µM)
Your answer should be a plain number; it is taken to be in µM.

Prompt: Item {Biotin-linker}-KEEEEDSTFTNISLADDIDH-NH2 (reading uncertain, SCOC isoform 3 aa 6-25; also called SCOC (WT) LIR domain peptide; SCOC LIR; source: synthetic peptide) [SCOC WT (aa 6–25) LIR peptide] : provide Kd
Completion: 27.8

Value source: paper PMC8202330
